Test system: M14
experimentNotes: Growth inhibition of human M14 cells incubated for 48 hrs by sulforhodamine B assay
Type: functional, cell-based
particulars: M14, 48 h, read-out: TGI
# key: entry, value: TGI
readoutName: TGI (µM)

> print(dat)
                               samplesmiles  readoutname  resultoperator  valuemeasured
1  COc1cc(Cl)cc(-c2nn(-c3cccc(NC(=O)c4ccc(N5CCOCC5)c(C(F)(F)F)c4)c3)cc2-c2ccncc2)c1          TGI               >            100
2  COc1cc(Cl)cc(-c2nn(-c3cccc(NC(=O)Nc4ccc(Cl)c(C(F)(F)F)c4)c3)cc2-c2ccncc2)c1          TGI               =           34.7
3  O=C(Nc1cccc(-n2cc(-c3ccncc3)c(-c3cc(O)cc(Cl)c3)n2)c1)c1cc(C(F)(F)F)cc(C(F)(F)F)c1          TGI               >            100
4  COc1cc(Cl)cc(-c2nn(-c3cccc(NC(=O)Nc4cc(C(F)(F)F)cc(C(F)(F)F)c4)c3)cc2-c2ccncc2)c1          TGI               =           2.16
5  COc1cc(Cl)cc(-c2nn(-c3cccc(NC(=O)c4cccc(C(F)(F)F)c4)c3)cc2-c2ccncc2)c1          TGI               >            100
